# target entity: hHMGR (Homo sapiens, UniProt P04035)
# Sequence (P04035 450-883 limits assumed): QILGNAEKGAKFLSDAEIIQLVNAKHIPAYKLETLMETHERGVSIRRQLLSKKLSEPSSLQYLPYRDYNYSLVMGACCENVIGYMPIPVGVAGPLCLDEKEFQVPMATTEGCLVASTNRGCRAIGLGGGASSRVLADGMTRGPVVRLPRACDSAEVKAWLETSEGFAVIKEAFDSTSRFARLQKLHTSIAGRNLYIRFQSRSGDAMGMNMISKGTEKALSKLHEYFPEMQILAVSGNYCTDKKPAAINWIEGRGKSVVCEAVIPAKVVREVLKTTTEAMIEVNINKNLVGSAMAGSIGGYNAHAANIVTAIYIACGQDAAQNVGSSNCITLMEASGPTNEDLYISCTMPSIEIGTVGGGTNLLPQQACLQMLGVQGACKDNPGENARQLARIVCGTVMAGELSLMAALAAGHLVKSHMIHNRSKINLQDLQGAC
# assay text: Enzymatic assay of recombinant hHMGR
# Type: biochemical
# measurement context: result in words, Figure 4
reported endpoint: inhibition of hHMGR activities

O=C(/C=C/c1ccc(O)c2oc(-c3ccc(O)c(O)c3)cc12)O[C@H](Cc1ccc(O)c(O)c1)C(=O)O [Compound 1] | effectively inhibit
CCCCCCCCCCCCCCCCCCCCCCO [Compound 8, Docosan-1-ol] | effectively inhibit
COc1cc(/C=C/C(=O)CC(=O)/C=C/c2ccc(O)c(OC)c2)ccc1O [Compound 3] | effectively inhibit
